target: hGPR40 (Homo sapiens, UniProt O14842)
Sequence (O14842 whole entry): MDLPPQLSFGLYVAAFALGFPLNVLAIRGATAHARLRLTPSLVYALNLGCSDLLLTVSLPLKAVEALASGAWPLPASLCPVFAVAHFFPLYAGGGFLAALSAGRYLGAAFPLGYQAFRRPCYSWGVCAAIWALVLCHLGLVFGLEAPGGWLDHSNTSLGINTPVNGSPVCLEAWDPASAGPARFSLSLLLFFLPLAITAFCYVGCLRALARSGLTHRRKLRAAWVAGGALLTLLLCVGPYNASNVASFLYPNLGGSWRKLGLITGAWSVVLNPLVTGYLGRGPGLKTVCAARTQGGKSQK
procedure.summary: FDSS-based intracellular calcium assay (hGPR40 EC50)
Format: cell-based
Parameters: 3xFLAG; expressed in transfected cells
stated.conditions: cells expressing GPR40, intracellular Ca2+ response, FDSS reader
pEC50: −log10 of the molar value.
Label YES when pEC50 is at or above 7; anything below gets NO.

CCOc1ccc(F)c(N2CC[C@@H](Oc3cnc(N4C[C@H](OCCCOC)[C@@H](C)[C@@H]4CC(=O)O)cn3)[C@H](C)C2)c1 [Example 4] = YES
CCOc1ccc(F)c(N2CC[C@@H](Oc3cnc(N4C[C@H](OC)[C@@H](C)[C@@H]4CC(=O)O)cn3)[C@H](C)C2)c1 [Example 3] = YES
COc1cc(N2CC[C@@H](Oc3cnc(N4C[C@H](OC)C[C@H]4CC(=O)O)cn3)[C@H](C)C2)c(Cl)cn1 [Example 7] = NO
COCCCO[C@H]1CN(c2cnc(O[C@@H]3CCN(c4cc(OC)ncc4Cl)C[C@H]3C)cn2)[C@@H](CC(=O)O)[C@@H]1C [Example 2] = YES

* * *

The following compounds are listed with their measured EC50 values.
target: hGPR40 (Homo sapiens)
procedure.summary: GPR40 IP-One HTRF assay in HEK293/GPR40 inducible cell lines (hGPR40 IP1 EC50)
Type: cell-based
Design: expressed in transfected cells
stated.conditions: HEK293 cells with tetracycline-inducible human GPR40, IP-One HTRF
experimental.endpoint: EC50

COCCCO[C@H]1CN(c2cnc(O[C@@H]3CCN(c4cc(OC)ncc4Cl)C[C@H]3C)cn2)[C@@H](CC(=O)O)[C@@H]1C [Example 2] = 0.004 µM
COc1cc(N2CC[C@@H](Oc3cnc(N4C[C@H](OC)[C@@H](C)[C@@H]4CC(=O)O)cn3)[C@H](C)C2)c(Cl)cn1 [Example 1] = 0.014 µM
CCOc1ccc(F)c(N2CC[C@@H](Oc3cnc(N4C[C@H](OC)[C@@H](C)[C@@H]4CC(=O)O)cn3)[C@H](C)C2)c1 [Example 3] = 0.021 µM
COc1cc(N2CC[C@@H](Oc3cnc(N4C[C@H](OC)C[C@@H]4CC(=O)O)cn3)[C@H](C)C2)c(Cl)cn1 [Example 6] = 0.044 µM

* * *

target: hGPR40 (Homo sapiens, UniProt O14842)
procedure.summary: FDSS-based intracellular calcium assay (hGPR40 EC50)
Format: cell-based
Parameters: 3xFLAG; expressed in transfected cells
stated.conditions: cells expressing GPR40, intracellular Ca2+ response, FDSS reader
pEC50: −log10 of the molar value.
The following molecules are listed with their measured pEC50 values.
experimental.endpoint: pEC50

COc1cc(N2CC[C@@H](Oc3cnc(N4C[C@H](C(F)(F)F)C[C@H]4CC(=O)O)cn3)[C@H](C)C2)c(Cl)cn1 [Example 8] = 6.02
CCOc1ccc(F)c(N2CC[C@@H](Oc3cnc(N4CC(OCCCOC)C(C)C4CC(=O)O)cn3)[C@H](C)C2)c1 (stereo partly drawn) [Example 5] = 6.08
COc1cc(N2CC[C@@H](Oc3cnc(N4C[C@H](C(F)(F)F)C[C@@H]4CC(=O)O)cn3)[C@H](C)C2)c(Cl)cn1 [Example 9] = 7.08
